protocolNotes: Toxicity in invasive zygomycosis diseased patient assessed as mortality
Assay type: organism-based
recordedConditions: human, in vivo; read-out: Activity
readoutType: mortality

# input Give a short answer stating reported mortality for CC[C@@H]([C@H](C)O)n1ncn(-c2ccc(N3CCN(c4ccc(OC[C@@H]5CO[C@@](Cn6cncn6)(c6ccc(F)cc6F)C5)cc4)CC3)cc2)c1=O .
# output 30%

These entries and their values trace back to ChEMBL document CHEMBL1143413.
